Species on record: Rattus norvegicus
Assay: Selectivity ratio of rat dopamine D2 receptor to rat dopamine D1 receptor

SMILES DATA: COc1cc2c3c(c1)-c1c(O)cccc1C[C@H]3N(C)CC2
COMPARISON SIGN: =
Ratio Ki: 0.19
//
SMILES DATA: CN1CCc2cccc3c2[C@H]1Cc1cccc(O)c1-3
COMPARISON SIGN: =
Ratio Ki: 0.24
//
SMILES DATA: CCN1CCc2cc(OC)cc3c2[C@H]1Cc1cccc(O)c1-3
COMPARISON SIGN: =
Ratio Ki: 4.6
//
SMILES DATA: CCCN1CCc2cc(OC)cc3c2[C@H]1Cc1ccc(O)c(O)c1-3
COMPARISON SIGN: =
Ratio Ki: 4860
//
SMILES DATA: COc1cc2c3c(c1)-c1c(ccc(O)c1O)C[C@H]3N(C)CC2
COMPARISON SIGN: >
Ratio Ki: 2860

====

Target: D(1A) dopamine receptor (Rattus norvegicus, UniProt P18901)
Sequence (P18901 whole entry): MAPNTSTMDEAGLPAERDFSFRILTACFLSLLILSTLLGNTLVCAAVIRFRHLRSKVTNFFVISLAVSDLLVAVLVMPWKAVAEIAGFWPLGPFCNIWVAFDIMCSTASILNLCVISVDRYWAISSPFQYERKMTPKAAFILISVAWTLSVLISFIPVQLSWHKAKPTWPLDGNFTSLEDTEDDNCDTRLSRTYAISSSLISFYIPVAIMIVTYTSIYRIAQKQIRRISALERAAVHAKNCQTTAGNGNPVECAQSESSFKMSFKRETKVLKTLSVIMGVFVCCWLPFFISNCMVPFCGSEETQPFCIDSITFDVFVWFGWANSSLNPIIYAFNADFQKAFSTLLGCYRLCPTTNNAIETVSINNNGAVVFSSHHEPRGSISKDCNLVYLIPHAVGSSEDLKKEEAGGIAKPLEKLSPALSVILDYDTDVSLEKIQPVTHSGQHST
Experiment: Displacement of [3H]SCH-23390 from dopamine D1 receptor in rat striatum

SMILES DATA: COc1cc2c3c(c1)-c1c(O)cccc1C[C@H]3N(C)CC2
UOM: nM
COMPARISON SIGN: =
Ki: 46

SMILES DATA: CCCCN1CCc2cc(OC)cc3c2[C@H]1Cc1cccc(O)c1-3
UOM: nM
COMPARISON SIGN: >
Ki: 10000

SMILES DATA: CCCN1CCc2cc(OC)cc3c2[C@H]1Cc1ccc(O)c(O)c1-3
UOM: nM
COMPARISON SIGN: =
Ki: 6450

SMILES DATA: CCN1CCc2cc(OC)cc3c2[C@H]1Cc1cccc(O)c1-3
UOM: nM
COMPARISON SIGN: =
Ki: 130

SMILES DATA: COc1cc2c3c(c1)-c1c(ccc(O)c1O)C[C@H]3N(C)CC2
UOM: nM
COMPARISON SIGN: >
Ki: 10000

SMILES DATA: CN1CCc2cccc3c2[C@H]1Cc1cccc(O)c1-3
UOM: nM
COMPARISON SIGN: =
Ki: 26.5
